Assay: Partition coefficient (logP) (HPLC)
Type: physicochemical
Conditions: octanol/water
Assign logP to each entry below.
Hey, just send me the number, nothing else.

// query logP value for entry CC(=O)c1ccc(CCCCCOc2c(Cl)cc(C3=NCCO3)cc2Cl)o1
4.6

// query logP value for entry Cc1cc(CCCCCOc2c(Cl)cc(C3=NCCO3)cc2Cl)on1 [WIN-54954]
4.6

// query logP value for entry Cc1cc(CCCCCOc2c(C)cc(-c3nnn(C)n3)cc2C)on1
3.6

// query logP value for entry CC(=O)c1ccc(CCCCCOc2c(C)cc(-c3nnn(C)n3)cc2C)o1
3.7

// query logP value for entry CC(=O)c1ccc(CCCOc2c(C)cc(-c3nnn(C)n3)cc2C)o1
3.2

// query logP value for entry Cc1cc(CCCOc2c(C)cc(-c3nnn(C)n3)cc2C)on1
3.2

// query logP value for entry Cc1cc(-c2nnn(C)n2)cc(C)c1OCCCCCc1ccc(C=O)o1
3.5
